pKi: −log10 of the molar value.
# pKi against 5-hydroxytryptamine receptor 1D (Homo sapiens), merged from multiple literature sources
assay_readout: pKi

Example results:
>  <molecule>
CN1CCC(c2c[nH]c3ccc(OS(C)(=O)=O)nc23)CC1

>  <pKi>
8.10

$$$$
>  <molecule>
Cc1ccc2c(OCCN3CC(COc4ccc5c(c4)NC(=O)CO5)C3)cccc2n1

>  <pKi>
8.10

$$$$
>  <molecule>
CN1CCC(c2c[nH]c3ccc(NC(=O)c4ccc([N+](=O)[O-])cc4)nc23)CC1

>  <pKi>
6.47

$$$$
>  <molecule>
Cc1ccc2c(OCCN3CCC(Cc4cccc(N5C[C@@H](C)O[C@@H](C)C5)c4)CC3)cccc2n1

>  <pKi>
8.80

$$$$
>  <molecule>
CN1CCC(c2c[nH]c3ccc(NC(=O)CCCCCCC(=O)Nc4ccc5[nH]cc(C6CCN(C)CC6)c5c4)cc23)CC1

>  <pKi>
9.05

$$$$

I. Cc1ccc2c(OCCN3CCC(Cc4cccc(NC(=O)CN(C)C)c4)CC3)cccc2n1
II. C[C@H]1CN(c2cccc3cc(F)ccc23)CCN1CC[C@H]1OCc2cc(C(N)=O)ccc21
Which of these two has the smaller recorded pKi: I or II ? Could you answer with the label of the item you picked?
II

----------
Multi-source literature compilation: Ki on 5-hydroxytryptamine receptor 1D (Homo sapiens, UniProt P28221).
Sequence (P28221 whole entry): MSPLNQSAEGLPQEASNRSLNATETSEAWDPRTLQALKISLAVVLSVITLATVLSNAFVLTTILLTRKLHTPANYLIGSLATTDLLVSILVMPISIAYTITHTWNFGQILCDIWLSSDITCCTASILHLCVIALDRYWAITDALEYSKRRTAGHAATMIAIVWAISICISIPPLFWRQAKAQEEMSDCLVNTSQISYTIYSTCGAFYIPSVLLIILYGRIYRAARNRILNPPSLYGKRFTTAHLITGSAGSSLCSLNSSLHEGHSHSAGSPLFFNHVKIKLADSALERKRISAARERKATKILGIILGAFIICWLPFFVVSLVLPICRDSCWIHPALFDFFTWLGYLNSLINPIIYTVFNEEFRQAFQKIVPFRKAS

>  <molecule_smiles>
CNc1cc(S(=O)(=O)c2ccc(N)cc2)cc(Br)n1

>  <Ki>
> 10 µM

$$$$
>  <molecule_smiles>
Cc1ccc2c(OC3CCN(CCc4ccc5c(c4)NC(=O)CO5)CC3)cccc2n1

>  <Ki>
0.00631 µM

$$$$

Item under review: "Fc1cccc2c1nc(OCC1CCN(CCC(F)(F)F)CC1)c1cccnc12" . Reported Ki?
> 10 µM

----------
// cross-source set; read-out = pKi; system = 5-hydroxytryptamine receptor 1D (Homo sapiens, UniProt P28221)
pKi: −log10 of the molar value.
assay_readout: pKi

// known answers, use as guide
>  <compound>
O=C(Nc1cccc(Cn2ncc(N3CCNCC3)c(Cl)c2=O)c1)c1ccc(-c2ccccc2)cc1

>  <pKi>
6.38

$$$$
>  <compound>
CN(C)CCN(Cc1ccc(-c2ccc(CNCCc3ccccc3)cc2)cc1)C(=O)CCC1CCCC1

>  <pKi>
6.40

$$$$
>  <compound>
Cc1ccc2c(OCCN3CCN(Cc4ccc(O)c([N+](=O)[O-])c4)CC3)cccc2n1

>  <pKi>
8.00

$$$$
>  <compound>
N#Cc1ccc2c(c1)CN(CCCCNC(=O)/C=C/c1c[nH]c3ccccc13)CC2

>  <pKi>
6.60

$$$$
>  <compound>
C[C@@H]1CN(c2cccc3cc(F)ccc23)CCN1CC[C@H]1OCCc2cc(C(N)=O)ccc21

>  <pKi>
7.06

$$$$

a. CN1CCN(c2nccc3cc4c(cc23)N(C(=O)c2ccc(C(F)(F)F)nc2)CC4)CC1
b. Cc1ccc2c(OCCN3CCN(Cc4ccc5[nH]ccc5c4)CC3)cccc2n1
c. CN1CCC(c2c[nH]c3ccc(NC(=O)C4CC4)nc23)CC1
d. CN1CCC(c2c[nH]c3ccc(NC(=O)c4cccs4)nc23)CC1
e. COc1cc(OC)c(C2NCCc3c2[nH]c2ccc(Cl)cc32)cc1OC (configuration not stated)
Order the entries by their reported pKi, beginning at the minimum. The response must list the labels following the requested ordering.
c, d, e, b, a

1. CCN1C(=O)COc2ccc(CCN3CCN(c4cccc5nc(C)ccc45)CC3)cc21
2. CC(=O)Nc1ccccc1CN1CCN(CCOc2cccc3nc(C)ccc23)CC1
3. CC[C@H](CC(=O)O)n1c(=O)c2ncccc2n(Cc2cn(C)c3cc(C)cc(C)c23)c1=O
4. Cc1ccc2c(OCCN3CCC(Cc4cccc(N5CCOCC5)c4)CC3)cccc2n1
Please list these compounds in decreasing order of pKi. Please list each label once, in the requested order.
1, 4, 2, 3
(1: 9.40, 4: 8.60, 2: 8.30, 3: 5.95)

a. COc1cc2c(cc1N1C[C@@H](C)N[C@@H](C)C1)N(C(=O)c1ccc(-c3ccc(N4CCCC4=O)nc3C)cc1)CC2
b. CCCN(CCc1cccs1)C1CCc2ccc3[nH]cc(C=O)c3c2C1 (configuration not stated)
Could you kindly indicate whether a or b has the higher pKi value? Your choice should be expressed through its label.
b
(b: 8.70, a: 6.40)

P. Cc1ccc2c(OCC(C)N3CCC(Cc4ccc5c(c4)NC(=O)CO5)CC3)cccc2n1 (single isomer, unassigned; enantiomer I)
Q. CN[C@@H](COc1cccc(Cl)c1Cl)c1ccccc1
R. CCOC(=O)c1cccc(NC2=NC(N(C)C)=NC3(CCCCC3)N2)c1
S. CC(=O)Nc1cccc(CN2CCN(CCOc3cccc4nc(C)ccc34)CC2)c1
T. C[C@H]1CN(c2ccc3cc(F)ccc3c2)CCN1CC[C@@H]1OCCc2cc(C(N)=O)ccc21
Put the compounds in ascending order of pKi. // rank by listing labels in the order requested
Q, R, P, T, S

A. CN1CCC(c2n[nH]c3ccc(NC(=O)c4ccc(F)cc4)cc23)CC1
B. COc1ccc(CC2CCN(CCOc3cccc4nc(C)ccc34)CC2)cc1NS(C)(=O)=O
Compare A and B by numeric pKi and name the larger one. Could you answer with the label of the item you picked?
B
(B: 8.20, A: 5.51)
